# Tested on: STING activation (IFNβ release) in iBMDMs
# Measurement description: IFNβ release ELISA after STING ligand (or LPS) stimulation, iBMDMs
# Assay type: cell-based, mouse
# Conditions: iBMDMs; 3′3′-cGAMP 10 μg/ml, 16 hours; compound 10 μM
Quick reference for fold increase in IFN-β release among some compounds
Numbers only here, please. The scale is fold.

Incoming: // lookup fold increase in IFN-β release for C[C@](O)(COc1ccc(C#N)cc1)C(=O)Nc1ccc(C#N)c(C(F)(F)F)c1
Outgoing: 1.47

Incoming: Check CN1CCc2cc3c(cc2[C@H]1[C@@H]1OC(=O)c2c1ccc1c2OCO1)OCO3 [(+)-Bicuculline] too.
Outgoing: 1.26

Incoming: Check O=C(O)CNC(=O)c1c(O)c2ccccc2n(Cc2ccccc2)c1=O too.
Outgoing: 0.44

Incoming: Check O=C(O[C@H]1C[C@H]2CC[C@@H](C1)[N+]21CCCC1)C(O)(c1ccccc1)c1ccccc1 [Trospium chloride] too.
Outgoing: 0.76

Incoming: Check CN1CC(=O)N2[C@H](c3ccc4c(c3)OCO4)c3[nH]c4ccccc4c3C[C@@H]2C1=O too.
Outgoing: 2.66

###

# Test system: STING activation (IFNβ release) in iBMDMs
# Measurement description: IFNβ release ELISA after STING ligand (or LPS) stimulation, iBMDMs
# Format: cell-based, mouse
# Conditions: iBMDMs; 3′3′-cGAMP 10 μg/ml, 16 hours; compound 10 μM
# Excerpt: Commercially available enzyme-linked immunosorbent assay (ELISA) kits were used to measure the concentrations of mouse IFNβ (Thermo Fisher Scientific) or human IFNβ (Thermo Fisher Scientific) in culture medium according to the manufacturer's instructions. […]
Endpoint label: fold increase in IFN-β release (fold)
Numbers only here, please. The scale is fold.

Incoming: // lookup fold increase in IFN-β release for CC(C)(C)c1cc(/C=C(\C#N)C(N)=S)cc(C(C)(C)C)c1O
Outgoing: 1.99

###

# Test system: STING activation (IFNβ release) in iBMDMs
# Measurement description: IFNβ release ELISA after STING ligand (or LPS) stimulation, iBMDMs
# Format: cell-based, mouse
# Conditions: iBMDMs; 3′3′-cGAMP 10 μg/ml, 16 hours; compound 10 μM
Quick reference for fold increase in IFN-β release among some compounds
Numbers only here, please. The scale is fold.

>  <Compound>
CCN[C@H]1CN(CCCOC)S(=O)(=O)c2sc(S(N)(=O)=O)cc21 [Brinzolamide]

>  <Endpoint unit>
fold

>  <fold increase in IFN-β release>
1.93

$$$$
>  <Compound>
Cc1cc(NC(=O)Nc2ccc(N(C)C)cc2)c2cc(F)cc(F)c2n1

>  <Endpoint unit>
fold

>  <fold increase in IFN-β release>
1.90

$$$$

Incoming: // lookup fold increase in IFN-β release for O=C(c1cncc(Br)c1)N1CCC(N2CCCC2)CC1
Outgoing: 1.99

###

# Test system: STING activation (IFNβ release) in iBMDMs
# Measurement description: IFNβ release ELISA after STING ligand (or LPS) stimulation, iBMDMs
# Assay type: cell-based, mouse
# Conditions: iBMDMs; 3′3′-cGAMP 10 μg/ml, 16 hours; compound 10 μM
Classes by fold increase in IFN-β release: low-valued = under 0.8 fold, mid-valued = from 0.8 fold up to 2 fold, high-valued = 2 fold and over

>  <Compound>
CC(C)(C)Cn1c(N)nc2ccc(-c3[nH]c(C(C)(C)C)nc3-c3ccc(F)cc3)nc21 [LY2228820]

>  <Study system>
STING activation (IFNβ release) in iBMDMs

>  <Answer label>
high-valued

$$$$
>  <Compound>
CCOC(=O)[C@H]1O[C@@H]1C(=O)N[C@@H](CC(C)C)C(=O)NCCC(C)C [Aloxistatin]

>  <Study system>
STING activation (IFNβ release) in iBMDMs

>  <Answer label>
low-valued

$$$$
>  <Compound>
CC(C)N(CCC(c1ccccc1)c1cc(CO)ccc1O)C(C)C (stereo not shown) [5-hydroxymethyl Tolterodine]

>  <Study system>
STING activation (IFNβ release) in iBMDMs

>  <Answer label>
mid-valued

$$$$
>  <Compound>
CCn1c(=O)c2c(nc(/C=C/c3ccc(OC)c(OC)c3)n2C)n(CC)c1=O [Istradefylline]

>  <Study system>
STING activation (IFNβ release) in iBMDMs

>  <Answer label>
mid-valued

$$$$
>  <Compound>
CC(C)CC(=O)Nc1[nH]nc2c1CN(C(=O)C1CCN(C)CC1)C2(C)C [PHA-793887]

>  <Study system>
STING activation (IFNβ release) in iBMDMs

>  <Answer label>
high-valued

$$$$

Incoming: Textbook exercise: identify the category of the compound given here, CCC(CC)(NC(=O)C(C)C)C(=O)N[C@@H](CCCN=C(N)N)C(=O)NC1(C(=O)NC(c2ccc(F)cc2)c2ccc(F)cc2)CCCC1 [MM-102] , according to its measured value.
Outgoing: high-valued

Incoming: Check C=CCn1c(=O)c2cnc(Nc3ccc(N4CCN(C)CC4)cc3)nc2n1-c1cccc(C(C)(C)O)n1 [MK-1775] too.
Outgoing: high-valued

Incoming: Check OC[C@H]1O[C@@H](c2ccc(Cl)c(Cc3ccc(O[C@H]4CCOC4)cc3)c2)[C@H](O)[C@@H](O)[C@@H]1O [Empagliflozin (BI 10773), Empagliflozin] too.
Outgoing: low-valued

Incoming: Check CCOC(=O)C1=C(C)NC(C)=C(C(=O)OC)C1c1cccc(Cl)c1Cl (stereo not shown) [Felodipine] too.
Outgoing: low-valued
